Source: patent US20220380341A1

# Test system: TZM-bl cell line
# Assay type: cell-based
# conditionParameters: human, 1 μM
endpointName: Percent Viability @ 1 μM (TZM-bl cells)

The cases that follow already have their Percent Viability @ 1 μM (TZM-bl cells) on record.
1. CC(C)(C)OC(=O)N1CCC(CCc2c(C3CC3)nn(-c3nc4cc(Cl)ccc4[nH]3)c2O)CC1 [Compound I-218] : 97.9%
2. CC(C)(O)C(=O)N1CCC(Cc2nn(-c3nc4ccccc4[nH]3)c(O)c2CCc2ccc(F)cc2)CC1 [Compound I-777] : 97.0%
3. Oc1c(CCc2ccc(F)cc2)c(-c2ccc(C(F)(F)F)cc2)nn1-c1nc2ccncc2[nH]1 [Compound I-309] : 99.1%
4. Oc1c(CCC2CCN(c3ncc(F)cn3)CC2)c(C2CC2)nn1-c1nc2cc(Cl)ccc2[nH]1 [Compound I-901] : 105.0%

Indicate its recorded Percent Viability @ 1 μM (TZM-bl cells); the compound in question is CC(C)(O)C(=O)N1CCC(CCc2c(C3CC3)nn(-c3nc4cc(Cl)ccc4[nH]3)c2O)CC1 [Compound I-712]
104.4%

Indicate its recorded Percent Viability @ 1 μM (TZM-bl cells); the compound in question is CC(=O)N1CCC(c2nn(-c3nc4ccccc4[nH]3)c(O)c2Cc2ccc(F)c(F)c2)CC1 [Compound I-744]
98.2%

Indicate its recorded Percent Viability @ 1 μM (TZM-bl cells); the compound in question is CC(C)(C)OC(=O)N1CCC(c2nn(-c3nc4ccc(Cl)cc4[nH]3)c(O)c2CCc2ccc(F)cc2)CC1 [Compound I-216]
87.1%

Indicate its recorded Percent Viability @ 1 μM (TZM-bl cells); the compound in question is COC(=O)c1ccc(CCc2c(-c3ccccc3)nn(-c3nc4cc(Cl)ccc4[nH]3)c2O)cc1 [Compound I-171]
75.8%

Indicate its recorded Percent Viability @ 1 μM (TZM-bl cells); the compound in question is COC(=O)N1CCC(c2nn(-c3nc4cc(Cl)ccc4[nH]3)c(O)c2CCn2nccn2)CC1 [Compound I-705]
100.9%
